# Tested on: RARg homodimer (NR concentration 270 nM)
# test.method.notes: PBM binding z-score (relative to random genomic background probes); higher = stronger binding; sequences stand for … in GC…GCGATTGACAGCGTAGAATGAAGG
measured.endpoint: PBM binding z-score
The answer should be a number; do not append a unit.

sequence: ATCTCTAGGTAAGACTCAGTTCAGAGAAGAACGC
target: RARg homodimer (NR concentration 270 nM)
PBM binding z-score: 0.549
//
sequence: ATCTCTAGGTAACCAAGTTCAGTTAATGCCGAAC
target: RARg homodimer (NR concentration 270 nM)
PBM binding z-score: 1.12
//
sequence: CACACTAGGTCAAGGTCAAAGTCGGTTTGTGCCA
target: RARg homodimer (NR concentration 270 nM)
PBM binding z-score: 6.6
//
sequence: ATCTCTAGGAAACCAAGTTCAGTGAATGCCGAAC
target: RARg homodimer (NR concentration 270 nM)
PBM binding z-score: 0.454
//
sequence: TCTTGTAGATCAGCAGGTTAAGAATGCTGGCCAA
target: RARg homodimer (NR concentration 270 nM)
PBM binding z-score: -0.427

Q: Fill in: PBM binding z-score of CCTCGGAGGAAAACAGGAGGTCAGAGCTGCCAGA is ___
Ans: 1.3

* * *

# Test system: PPARg:RXRa 30nM:10nM, anti-RXR (NR concentration 30 nM, RXRa partner concentration 10 nM)
# test.method.notes: PBM binding z-score (relative to random genomic background probes); higher = stronger binding; sequences stand for … in GC…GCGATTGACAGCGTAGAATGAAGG
This listing pairs sequences with measured PBM binding z-score.

Look over these answered cases.
sequence: CATACAGGCTCAGCTAGGCCAGAGTAGGGACGGC
measured: -0.529

sequence: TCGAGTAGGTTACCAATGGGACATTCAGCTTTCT
measured: 1.11

sequence: CTGGAAAGGTCGGTTGAGGTGAGTATACGGATAA
measured: -0.182

Please look at the following sequence next.
Q: Fill in: PBM binding z-score of GCTTCTAGGTCAGGTTGGTCAGCTAACGGGTACG is ___
Ans: 0.647

* * *

This listing pairs sequences with measured PBM binding z-score.
# System: PPARg:RXRa DBDmut IVT, anti-RXR (DBD mutation: RXRa K156A/R161A, NR concentration 270 nM, RXRa partner concentration 90 nM)
# test.method.notes: PBM binding z-score (relative to random genomic background probes); higher = stronger binding; sequences stand for … in GC…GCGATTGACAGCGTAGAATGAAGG

Look over these answered cases.
sequence: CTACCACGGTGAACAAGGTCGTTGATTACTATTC
PBM binding z-score: 0.771

sequence: ATATGTAGCTTACATCCGGGTCATTCAGGCTATG
PBM binding z-score: 0.48

sequence: GTACCAAGGTAAATAGGTCGTTGATGAGTAGGCG
PBM binding z-score: 1.71

sequence: AGAATGAGGTTAAGATCAGGGAGACAGAATACAT
PBM binding z-score: 3.04

sequence: GCTGCTAGGTCAACTGATGGTAAGCTAAAGCTCG
PBM binding z-score: 5.03

Q: Fill in: PBM binding z-score of CCTACTGGTCCAAAAAGGTCATTGATGCCGATAA is ___
Ans: 0.397

Q: Fill in: PBM binding z-score of TCATATAGGCAATACAGGTGAAAGTCGGCATCTA is ___
Ans: 2.91

Q: Fill in: PBM binding z-score of ATATGTATGTTACATCCGGGTCATTCAGGCTATG is ___
Ans: 3.22

* * *

# System: LXRa homodimer (NR concentration 270 nM)
# test.method.notes: PBM binding z-score (relative to random genomic background probes); higher = stronger binding; sequences stand for … in GC…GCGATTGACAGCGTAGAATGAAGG
measured.endpoint: PBM binding z-score
The answer should be a number; do not append a unit.

Look over these answered cases.
sequence: CTACCAACGTGAACAAGGTCGTTGATTACTATTC
PBM binding z-score: 0.667

sequence: TGGAGTAGGTTAGTCGGGGCATTCAGCCAACATA
PBM binding z-score: 0.358

sequence: AGAATGAGGTTATCCGTAGATCAGGGAAGAAAGT
PBM binding z-score: -0.212

sequence: CGTCGAAGGTCATAGGAGGTCAGTGAAGACAGAT
PBM binding z-score: 5.14

sequence: CAAACTTGGTCACAGAGGTCAAAGTCCGTGCGTA
PBM binding z-score: 5.81

Q: Item: CCTGCTAGGTCAATTGTCAGCTAAAGCAGCTCGC Test system: LXRa homodimer (NR concentration 270 nM) Read-out: PBM binding z-score Value: ?
Ans: 0.111

* * *

# Tested on: PPARg:RXRa IVT, anti-PPARg (NR concentration 270 nM, RXRa partner concentration 90 nM)
# test.method.notes: PBM binding z-score (relative to random genomic background probes); higher = stronger binding; sequences stand for … in GC…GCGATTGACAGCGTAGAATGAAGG
Everything with PBM binding z-score lower than 2 is Criterion not met; everything else, including exactly 2, is Criterion met.

Illustrative cases are given below, each with its answer.
sequence: ACTTACGGGTCAACTAGGTTATAGCACGCGTATA
group.label: Criterion met

sequence: ACAGACAGGTGAAGAAGGTAACTCAGGCTATCAT
group.label: Criterion not met

sequence: CGTCAAAGTTCAAGGAAACGTAACAGAAAGCAGC
group.label: Criterion not met

sequence: ATCTCTAGGTAAGACTCAGTTCGGTGAAGAACGC
group.label: Criterion not met

sequence: GCTAGTTGGTCAATAAAAGGTCACACACCGGTCG
group.label: Criterion met

Next:
Q: Test whether the sequence TCTTGTAGATCACAGGTTAAGAAAGCCGAAGCCT records PBM binding z-score of 2 or higher.
Ans: Criterion not met

* * *

# Test system: RXRa homodimer (NR concentration 180 nM)
# test.method.notes: PBM binding z-score (relative to random genomic background probes); higher = stronger binding; sequences stand for … in GC…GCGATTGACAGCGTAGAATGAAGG
Everything with PBM binding z-score lower than 1 is -1; everything else, including exactly 1, is 1.

Illustrative cases are given below, each with its answer.
sequence: ATATGTAGGTTAGCTGGGATCATTCAGACTAGGC
group.label: -1
--
sequence: TCTTGTAGATCAATAGAGGTTAAGCAAGTGCGCT
group.label: 1

Q: Test whether the sequence TCGCCTAGGTCATGCGGGCCAGTATAGTGTCGGC records PBM binding z-score of 1 or higher.
Ans: 1

Q: Test whether the sequence CCTAGCAGGCCAATCTGGGTAACTCAAGGCTTGA records PBM binding z-score of 1 or higher.
Ans: -1

Q: Test whether the sequence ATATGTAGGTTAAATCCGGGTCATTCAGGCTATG records PBM binding z-score of 1 or higher.
Ans: 1

Q: Test whether the sequence TCTTGTAGATCAATAGATGTTAAGAAAGTGCGCT records PBM binding z-score of 1 or higher.
Ans: -1

* * *

# Tested on: PPARg DBDmut:RXRa IVT, anti-PPARg (DBD mutation: PPARg1 K132A/R137A, NR concentration 270 nM, RXRa partner concentration 90 nM)
# test.method.notes: PBM binding z-score (relative to random genomic background probes); higher = stronger binding; sequences stand for … in GC…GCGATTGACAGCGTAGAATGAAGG
measured.endpoint: PBM binding z-score
The answer should be a number; do not append a unit.

Look over these answered cases.
sequence: CCTCGGAGGACAACTGGAGGTCAGAGCTGCCAGA
measured: -1.19

sequence: ATAGGTAGGTTAAGGGTCATTCAGGTTGGTTCGC
measured: 3.33

sequence: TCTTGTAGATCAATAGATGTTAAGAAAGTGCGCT
measured: 0.918

sequence: TTACCAATGTGAAGGTCGTTGATCCCTCTGTAGA
measured: -0.143

Q: Fill in: PBM binding z-score of ATCTCTAGGTAACAACTTCAGTGAAAGAGAGGAC is ___
Ans: 1.64

Q: Fill in: PBM binding z-score of CAAACTAGGTCAAGAGGTCAAAGACCGCTTCCCG is ___
Ans: 1.4

Q: Fill in: PBM binding z-score of ATACCAAGGTGATCGTGAGGCCGTTGATACTAAC is ___
Ans: 0.198

Q: Fill in: PBM binding z-score of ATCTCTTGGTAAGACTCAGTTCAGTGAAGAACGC is ___
Ans: 1.42

Q: Fill in: PBM binding z-score of TTACCAAGGTGAGCTGAGGTCGTTGGTCCAACTC is ___
Ans: -0.48

Q: Fill in: PBM binding z-score of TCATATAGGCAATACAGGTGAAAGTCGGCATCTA is ___
Ans: 0.893

Q: Fill in: PBM binding z-score of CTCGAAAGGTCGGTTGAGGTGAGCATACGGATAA is ___
Ans: -0.332

Q: Fill in: PBM binding z-score of CGTCAAAGTTCAACTACGGTAACGTAAAGCACGC is ___
Ans: 0.517
